- method.notes: in vitro
- Method: U-937 promonocytes (CRL1593.2™) were obtained from the American Type Culture Collection (ATCC, Manassas, VA, USA), cultured in complete medium containing RPMI 1640 medium (Sigma) supplemented with 10% fetal bovine serum (FBS) (Gibco, Life Technologies, Grand Island, NY, USA) and 1% antibiotics (100 U/mL penicillin and 0.1 mg/mL streptomycin) (Sigma). […] Cytotoxicity was determined according to the percentages of cell growth (viability) obtained for each tested compound or medium alone. […]
measurement.label: log10 of CC50 at 72 h (log10 of the value in µg/mL)
Plainly stated, the numbers are log10 of CC50 at 72 h given in µg/mL.

Consider the reported log10 of CC50 at 72 h for these compounds:
| compound | log10 of CC50 at 72 h |
| --- | --- |
| C[N+](C)(CCl)CCCC=C(c1ccccc1)c1ccccc1.[I-] | 1.32 |
| C[N+](C)(C)CCCCC=C(c1ccccc1)c1ccccc1.[I-] | 1.10 |
| C[N+](C)(CI)CCCC=C(c1ccccc1)c1ccccc1.[I-] | 1.00 |
| C[N+](C)(CCl)CCC=C(c1ccccc1)c1ccccc1.[I-] | 1.65 |
| C[N+](C)(CCl)CCCCC=C(c1ccccc1)c1ccccc1.[I-] | 1.32 |

Now look at this one.
# query: log10 of CC50 at 72 h of entry C[N+](C)(CI)CCC=C(c1ccccc1)c1ccccc1.[I-]
1.66
